# Assay Method Text: clinical
# Test Settings: human, in vivo, 25 mg, AUC24h, mean ± SD, Adolescents (Cohort 1, ≥12 to <18 years), RPV 25 mg qd multiple dose, N=23
Measurement Type: AUC(0-t) (ng·h/mL)
// note: answer is a bare numeric in ng·h/mL

Challenge: Dear colleague, please send me the reported AUC(0-t) for Cc1cc(/C=C/C#N)cc(C)c1Nc1ccnc(Nc2ccc(C#N)cc2)n1 when you can.
Response given: 1870
